system: Fibroblast; assay: Multiplex assay against human fibroblast; type: toxicity, cell-based; details: 48 h, 10 µM, compound concentration 10 uM, replicate 2
Population Apoptotic (%) reference
experimental endpoint: Population Apoptotic (%)

[
  {
    "compound": "CC(C)c1noc(N2CCC(COc3ccc(-c4ccc(S(C)(=O)=O)cc4)nc3)CC2)n1",
    "recorded value": 66
  },
  {
    "compound": "CC1=C(C(=O)Nc2cc3cn[nH]c3cc2F)C(c2ccc(C(F)(F)F)cc2)CC(=O)N1 (centres undefined)",
    "recorded value": 62
  },
  {
    "compound": "O=C(c1cc2c(cc1F)OC(c1ccc(F)cc1)(c1ccc(Cl)cc1Cl)O2)N1CCOCC1 (centres undefined)",
    "recorded value": 81
  },
  {
    "compound": "CN1CCN(Cc2ccc(Nc3ncc(Cl)c(Nc4ccccc4S(=O)(=O)N(C)C)n3)cc2)CC1",
    "recorded value": 50
  }
]

====

tested on: U2OS; experiment: Multiplex assay against U2OS; type: toxicity, cell-based; settings: human, 12 h, 10 µM, compound concentration 10 uM, replicate 2
In this section we review reported Population Mitotic Cells (%) values for a set of molecules.
experimental endpoint: Population Mitotic Cells (%)

[
  {
    "molecule": "COc1ccc(-c2ccc3ncc4c(c3c2)n(-c2ccc(N3CCNCC3)c(C(F)(F)F)c2)c(=O)n4C)cn1.O=C(O)/C=C\\C(=O)O",
    "experimental endpoint": "Population Mitotic Cells (%)",
    "unit label": "%",
    "recorded value": 0
  },
  {
    "molecule": "Cc1nc(N2CC[C@H](O)C2)ncc1-c1cc(C(F)(F)F)cc2[nH]ncc12",
    "experimental endpoint": "Population Mitotic Cells (%)",
    "unit label": "%",
    "recorded value": 83
  },
  {
    "molecule": "CC(C)c1noc(N2CCC(COc3ccc(-c4ccc(S(C)(=O)=O)cc4)nc3)CC2)n1",
    "experimental endpoint": "Population Mitotic Cells (%)",
    "unit label": "%",
    "recorded value": 57
  },
  {
    "molecule": "CC(C)Oc1ccccc1C(=O)Nc1ccccc1C(=O)Nc1cccc(S(=O)(=O)C(F)(F)F)c1",
    "experimental endpoint": "Population Mitotic Cells (%)",
    "unit label": "%",
    "recorded value": 10
  },
  {
    "molecule": "CCCSc1nc(N[C@@H]2C[C@H]2c2ccc(F)c(F)c2)c2nnn([C@@H]3C[C@H](OCCO)[C@@H](O)[C@H]3O)c2n1",
    "experimental endpoint": "Population Mitotic Cells (%)",
    "unit label": "%",
    "recorded value": 25
  },
  {
    "molecule": "CC(C)CC(=O)Nc1[nH]nc2c1CN(C(=O)C1CCN(C)CC1)C2(C)C",
    "experimental endpoint": "Population Mitotic Cells (%)",
    "unit label": "%",
    "recorded value": 50
  },
  {
    "molecule": "COc1ccccc1CN[C@H]1C2CCN(CC2)[C@H]1C(c1ccccc1)c1ccccc1",
    "experimental endpoint": "Population Mitotic Cells (%)",
    "unit label": "%",
    "recorded value": 50
  },
  {
    "molecule": "Cc1cccc(CN2CCN(C(c3ccccc3)c3ccc(Cl)cc3)CC2)c1.Cl.Cl (stereo not drawn)",
    "experimental endpoint": "Population Mitotic Cells (%)",
    "unit label": "%",
    "recorded value": 50
  }
]

====

test system: Fibroblast; test: Multiplex assay against human fibroblast; format: toxicity, cell-based; conditions: 24 h, 10 µM, compound concentration 10 uM, replicate 2
Reported Population Apoptotic (%) values follow for various compounds

[
  {
    "compound": "Cc1cccc(CN2CCN(C(c3ccccc3)c3ccc(Cl)cc3)CC2)c1.Cl.Cl (configuration not stated)",
    "Population Apoptotic (%)": 11
  },
  {
    "compound": "COC(=O)C1=C(C)NC(C)=C(C(=O)OCCCN2CCC(c3ccccc3)(c3ccccc3)CC2)[C@H]1c1cccc([N+](=O)[O-])c1",
    "Population Apoptotic (%)": 100
  },
  {
    "compound": "CNC(=O)Nc1ccc2c(c1)[C@@]1(CC2)OC(=O)N(CC(=O)N(Cc2ccc(F)cc2)[C@@H](C)C(F)(F)F)C1=O",
    "Population Apoptotic (%)": 100
  },
  {
    "compound": "COc1ccccc1CN[C@H]1C2CCN(CC2)[C@H]1C(c1ccccc1)c1ccccc1",
    "Population Apoptotic (%)": 40
  },
  {
    "compound": "Cc1ccc2c(c1)c1c(n2CCc2ccc(C)nc2)CCN(C)C1 [LATREPIRDINE]",
    "Population Apoptotic (%)": 76
  },
  {
    "compound": "Cc1ccc(C)c(Oc2ccncc2C(=O)N2CCN(C3CC3)c3ccccc32)c1",
    "Population Apoptotic (%)": 53
  },
  {
    "compound": "O=c1[nH]c2ccccc2n1C1CCN(Cc2ccc(-c3[nH]c4cc5ncnc5cc4nc3-c3ccccc3)cc2)CC1",
    "Population Apoptotic (%)": 56
  },
  {
    "compound": "C=CC(=O)Nc1cccc(Oc2nc(Nc3ccc(N4CCN(C)CC4)cc3OC)ncc2Cl)c1",
    "Population Apoptotic (%)": 0
  },
  {
    "compound": "CC(C)(C)NC[C@H](O)COc1nsnc1N1CCOCC1",
    "Population Apoptotic (%)": 41
  },
  {
    "compound": "CNC(=O)Nc1ccc(-c2nc(N3CC4CCC(C3)O4)c3cnn(C4CCC5(CC4)OCCO5)c3n2)cc1",
    "Population Apoptotic (%)": 41
  },
  {
    "compound": "CC(C)NC(=O)N1CC[C@H](NC2=Nc3cc(F)ccc3N(CC(F)F)c3ccc(Cl)cc32)C1",
    "Population Apoptotic (%)": 83
  },
  {
    "compound": "C[C@]12CC[C@@H]3c4ccc(O)cc4CC[C@H]3[C@@H]1CC[C@@H]2O",
    "Population Apoptotic (%)": 30
  },
  {
    "compound": "CN1CCN(Cc2ccc(Nc3ncc(Cl)c(Nc4ccccc4S(=O)(=O)N(C)C)n3)cc2)CC1",
    "Population Apoptotic (%)": 95
  },
  {
    "compound": "C=CC(=O)Nc1ccc2[nH]c(=O)n(C3CCN(Cc4ccc(-c5nc6cc[nH]c(=O)c6cc5-c5ccccc5)cc4)CC3)c2c1",
    "Population Apoptotic (%)": 33
  },
  {
    "compound": "Cl.O=C(O)c1cc(-c2ccc(C3CCNCC3)cc2)c2ccc(-c3ccc(C(F)(F)F)cc3)cc2c1",
    "Population Apoptotic (%)": 61
  },
  {
    "compound": "CC1=C(C(=O)Nc2cc3cn[nH]c3cc2F)C(c2ccc(C(F)(F)F)cc2)CC(=O)N1 (configuration not stated)",
    "Population Apoptotic (%)": 75
  },
  {
    "compound": "COc1ccc(-c2ccc3ncc4c(c3c2)n(-c2ccc(N3CCNCC3)c(C(F)(F)F)c2)c(=O)n4C)cn1.O=C(O)/C=C\\C(=O)O",
    "Population Apoptotic (%)": 100
  }
]

====

system: Fibroblast; assay: Multiplex assay against human fibroblast; format: toxicity, cell-based; conditions: 48 h, 10 µM, compound concentration 10 uM, replicate 1

[
  {
    "compound": "Cc1ccc(C)c(Oc2ccncc2C(=O)N2CCN(C3CC3)c3ccccc32)c1",
    "system tested": "Fibroblast",
    "Population Healthy Nuclei (%)": "52%"
  },
  {
    "compound": "Cc1c[nH]c2nccc(Oc3c(F)cc(Nc4cc(Cl)nc(N)n4)cc3F)c12 [BAY-549]",
    "system tested": "Fibroblast",
    "Population Healthy Nuclei (%)": "29%"
  },
  {
    "compound": "O=C(c1cc2c(cc1F)OC(c1ccc(F)cc1)(c1ccc(Cl)cc1Cl)O2)N1CCOCC1 (stereo not given)",
    "system tested": "Fibroblast",
    "Population Healthy Nuclei (%)": "42%"
  },
  {
    "compound": "O=c1cc(N2CCOCC2)oc2c(-c3cccc4c3sc3ccccc34)cccc12",
    "system tested": "Fibroblast",
    "Population Healthy Nuclei (%)": "23%"
  },
  {
    "compound": "Cc1ccccc1C(c1ccccc1C)N1C2CCC1CC(O)(c1ccccc1)C2 (stereo not given)",
    "system tested": "Fibroblast",
    "Population Healthy Nuclei (%)": "59%"
  }
]

====

tested on: U2OS; assay: Multiplex assay against U2OS; type: toxicity, cell-based; conditions: human, 48 h, 1 µM, compound concentration 1 uM, replicate 1
The reader will find reported Population Apoptotic (%) values listed item by item below.

[
  {
    "molecule": "Cl.O=C(O)c1cc(-c2ccc(C3CCNCC3)cc2)c2ccc(-c3ccc(C(F)(F)F)cc3)cc2c1",
    "Population Apoptotic (%)": 17
  },
  {
    "molecule": "CC(C)OC(=O)N1CCC(Oc2ncnc3c2cnn3-c2ccc(S(C)(=O)=O)cc2F)CC1",
    "Population Apoptotic (%)": 27
  },
  {
    "molecule": "CNC(=O)Nc1ccc(-c2nc(N3CC4CCC(C3)O4)c3cnn(C4CCC5(CC4)OCCO5)c3n2)cc1",
    "Population Apoptotic (%)": 50
  },
  {
    "molecule": "COC(=O)C1=C(C)NC(C)=C(C(=O)OCCCN2CCC(c3ccccc3)(c3ccccc3)CC2)[C@H]1c1cccc([N+](=O)[O-])c1",
    "Population Apoptotic (%)": 78
  },
  {
    "molecule": "CCc1ccc(OCc2ccccc2C(=O)Nc2ccc3nc(C)cc(N)c3c2)cc1.Cl",
    "Population Apoptotic (%)": 96
  },
  {
    "molecule": "COc1cc2ncn(-c3cc(OCc4ccccc4C(F)(F)F)c(C(N)=O)s3)c2cc1OC [GW843682X]",
    "Population Apoptotic (%)": 71
  },
  {
    "molecule": "CC(C)(C)NC[C@H](O)COc1nsnc1N1CCOCC1",
    "Population Apoptotic (%)": 23
  },
  {
    "molecule": "CC(C)c1noc(N2CCC(COc3ccc(-c4ccc(S(C)(=O)=O)cc4)nc3)CC2)n1",
    "Population Apoptotic (%)": 42
  },
  {
    "molecule": "Cc1ccc(C)c(Oc2ccncc2C(=O)N2CCN(C3CC3)c3ccccc32)c1",
    "Population Apoptotic (%)": 46
  },
  {
    "molecule": "CN1CCN(Cc2ccc(Nc3ncc(Cl)c(Nc4ccccc4S(=O)(=O)N(C)C)n3)cc2)CC1",
    "Population Apoptotic (%)": 82
  },
  {
    "molecule": "CC1=C(C(=O)Nc2cc3cn[nH]c3cc2F)C(c2ccc(C(F)(F)F)cc2)CC(=O)N1 (stereo not drawn)",
    "Population Apoptotic (%)": 34
  },
  {
    "molecule": "COc1ccccc1CN[C@H]1C2CCN(CC2)[C@H]1C(c1ccccc1)c1ccccc1",
    "Population Apoptotic (%)": 80
  },
  {
    "molecule": "CCCSc1nc(N[C@@H]2C[C@H]2c2ccc(F)c(F)c2)c2nnn([C@@H]3C[C@H](OCCO)[C@@H](O)[C@H]3O)c2n1",
    "Population Apoptotic (%)": 69
  },
  {
    "molecule": "CC(C)NC(=O)N1CC[C@H](NC2=Nc3cc(F)ccc3N(CC(F)F)c3ccc(Cl)cc32)C1",
    "Population Apoptotic (%)": 52
  },
  {
    "molecule": "Cc1c[nH]c2nccc(Oc3c(F)cc(Nc4cc(Cl)nc(N)n4)cc3F)c12",
    "Population Apoptotic (%)": 60
  },
  {
    "molecule": "C[C@]12CC[C@@H]3c4ccc(O)cc4CC[C@H]3[C@@H]1CC[C@@H]2O",
    "Population Apoptotic (%)": 31
  },
  {
    "molecule": "Cc1cccc(CN2CCN(C(c3ccccc3)c3ccc(Cl)cc3)CC2)c1.Cl.Cl (stereo not drawn)",
    "Population Apoptotic (%)": 30
  },
  {
    "molecule": "Cc1ccc2c(c1)c1c(n2CCc2ccc(C)nc2)CCN(C)C1 [LATREPIRDINE]",
    "Population Apoptotic (%)": 40
  },
  {
    "molecule": "O=C(c1cc2c(cc1F)OC(c1ccc(F)cc1)(c1ccc(Cl)cc1Cl)O2)N1CCOCC1 (stereo not drawn)",
    "Population Apoptotic (%)": 62
  },
  {
    "molecule": "O=c1cc(N2CCOCC2)oc2c(-c3cccc4c3sc3ccccc34)cccc12",
    "Population Apoptotic (%)": 43
  },
  {
    "molecule": "COc1cc(Nc2nccc(-c3cnn4nc(OC)ccc34)n2)cc(C(F)(F)F)c1",
    "Population Apoptotic (%)": 53
  },
  {
    "molecule": "CCc1nn(CCCN2CCN(c3cccc(Cl)c3)CC2)c(=O)n1CCOc1ccccc1.Cl [NEFAZODONE HYDROCHLORIDE]",
    "Population Apoptotic (%)": 46
  },
  {
    "molecule": "CC(C)Oc1ccccc1C(=O)Nc1ccccc1C(=O)Nc1cccc(S(=O)(=O)C(F)(F)F)c1",
    "Population Apoptotic (%)": 81
  }
]
